Target: T1, IFN-αF (human, UniProt P01568 24-189)
T1 construct: also called IFN-α21; alpha F
T1 chain: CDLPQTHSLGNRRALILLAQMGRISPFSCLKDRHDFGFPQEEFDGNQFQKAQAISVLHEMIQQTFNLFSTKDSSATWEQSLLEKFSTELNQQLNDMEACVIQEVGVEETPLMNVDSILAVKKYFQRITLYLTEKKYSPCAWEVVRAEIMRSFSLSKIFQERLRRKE
Assay: ProteOn, one antigen concentration
// reported pKd per item
# log scale: pKd equals minus log10 of the concentration in mol/L

>  <binder>
IFWM3354 (antibody, V domains shown, VH IFWH624, VL IFWL1017; converted mAb; also called IFWB3089) VH: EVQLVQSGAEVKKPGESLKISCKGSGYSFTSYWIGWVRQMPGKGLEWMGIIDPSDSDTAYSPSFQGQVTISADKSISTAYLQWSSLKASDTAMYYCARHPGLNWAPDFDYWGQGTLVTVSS VL: DIQMTQSPSSLSASVGDRVTITCRASQSITSSLNWYQQKPGKAPKLLIYFASSLQSGVPSRFSGSGSGTDFTLTISSLQPEDFATYYCQQSFDLPLTFGQGTKVEIK

>  <pKd>
10.49

$$$$
>  <binder>
IFWM3342 (antibody, V domains shown, VH IFWH624, VL IFWL992; converted mAb; also called IFWB3077) VH: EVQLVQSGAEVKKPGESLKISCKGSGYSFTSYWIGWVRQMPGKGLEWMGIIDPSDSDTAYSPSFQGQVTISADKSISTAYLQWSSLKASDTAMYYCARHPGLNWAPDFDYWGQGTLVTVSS VL: DIQMTQSPSSLSASVGDRVTITCRASQSIGSFLNWYQQKPGKAPKLLIYFASSLQSGVPSRFSGSGSGTDFTLTISSLQPEDFATYYCQQSYSIPITFGQGTKVEIK

>  <pKd>
9.79

$$$$
>  <binder>
IFWM3322 (antibody, V domains shown, VH IFWH591, VL IFWL1051; converted mAb; also called IFWB3057) VH: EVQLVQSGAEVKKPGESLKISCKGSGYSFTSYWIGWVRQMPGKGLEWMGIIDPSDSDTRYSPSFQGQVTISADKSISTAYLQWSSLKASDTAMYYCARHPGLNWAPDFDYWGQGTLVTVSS VL: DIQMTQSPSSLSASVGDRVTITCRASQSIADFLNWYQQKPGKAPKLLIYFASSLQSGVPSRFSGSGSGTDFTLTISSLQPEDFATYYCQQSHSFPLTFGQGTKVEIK

>  <pKd>
10.48

$$$$
>  <binder>
IFWM3338 (antibody, V domains shown, VH IFWH591, VL IFWL1091; converted mAb; also called IFWB3073) VH: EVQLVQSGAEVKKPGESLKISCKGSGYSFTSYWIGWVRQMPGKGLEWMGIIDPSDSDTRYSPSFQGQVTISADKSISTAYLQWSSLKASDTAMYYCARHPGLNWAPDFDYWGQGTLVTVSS VL: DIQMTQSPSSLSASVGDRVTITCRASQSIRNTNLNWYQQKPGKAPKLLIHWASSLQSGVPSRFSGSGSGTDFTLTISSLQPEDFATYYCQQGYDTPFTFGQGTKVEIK

>  <pKd>
10.19

$$$$

Please look at the following binder next.
Reported pKd ( IFWM3350 (antibody, V domains shown, VH IFWH624, VL IFWL1009; converted mAb; also called IFWB3085) VH: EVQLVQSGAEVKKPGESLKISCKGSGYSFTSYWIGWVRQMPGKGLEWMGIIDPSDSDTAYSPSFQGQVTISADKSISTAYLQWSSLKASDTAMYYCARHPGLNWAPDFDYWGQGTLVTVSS VL: DIQMTQSPSSLSASVGDRVTITCRASQSIDDFLNWYQQKPGKAPKLLIYFASSLQSGVPSRFSGSGSGTDFTLTISSLQPEDFATYYCQQSHTLPLTFGQGTKVEIK ) = 10.27

Origin of the recorded values: patent US20150368338A1
